- target.of.assay: human recombinant HDAC1 (Homo sapiens)
- Sequence (Q13547 whole entry): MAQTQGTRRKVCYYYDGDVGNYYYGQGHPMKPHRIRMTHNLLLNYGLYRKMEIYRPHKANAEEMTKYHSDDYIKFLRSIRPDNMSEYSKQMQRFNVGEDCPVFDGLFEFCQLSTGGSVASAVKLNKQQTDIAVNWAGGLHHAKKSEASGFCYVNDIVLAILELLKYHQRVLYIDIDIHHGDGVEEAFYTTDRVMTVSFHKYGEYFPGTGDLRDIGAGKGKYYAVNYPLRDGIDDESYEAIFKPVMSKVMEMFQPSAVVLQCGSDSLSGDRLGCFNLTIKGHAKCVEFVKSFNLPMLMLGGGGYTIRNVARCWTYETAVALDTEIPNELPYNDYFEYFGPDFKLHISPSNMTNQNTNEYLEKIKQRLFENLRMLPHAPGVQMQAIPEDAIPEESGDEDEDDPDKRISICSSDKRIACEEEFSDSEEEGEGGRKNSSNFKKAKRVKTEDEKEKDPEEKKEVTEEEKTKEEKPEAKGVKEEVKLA
- protocol.notes: HDAC1 enzyme activity inhibition assay (HDAC Fluorimetric Drug Discovery Kit)
- condition.context: 0.3 μg enzyme, 10 μM substrate, 30° C., 60 minutes
- Description: In order to examine the HDAC6 selectivity of the compounds of formula I of the present invention by HDAC1 and HDAC6 enzymatic activity inhibition assays, an experiment was performed using a conventional substance as a control. HDAC enzyme activity was measured using a HDAC Fluorimetric Drug Discovery Kit (BML-AK511, 516, Enzo Life Science). […] Based on the resulting values, each IC50 value was calculated using GraphPad Prism4.0 program.
The entries below are paired with their reported IC50.
observable: IC50 (µM)

molecule | target.of.assay | observed.measurement
CS(=O)(=O)N(Cc1ccc(-c2nnc(C(F)(F)F)o2)cc1)c1cccnc1 [Compound 11088] | human recombinant HDAC1 (Homo sapiens) | 51.4
CS(=O)(=O)N(Cc1ccc(-c2nnc(C(F)(F)F)o2)cc1F)c1cccc(Cl)c1 [Compound 11190] | human recombinant HDAC1 (Homo sapiens) | 19.5
CCS(=O)(=O)N(Cc1ccc(-c2nnc(C(F)F)o2)cn1)c1cc(F)cc(F)c1 [Compound 11463] | human recombinant HDAC1 (Homo sapiens) | 22.3
Cc1cccc(N(Cc2ccc(-c3nnc(C(F)F)o3)cn2)S(=O)(=O)C2CCN(C3CC4CCC3C4)CC2)c1 (stereo not shown) [Compound 11686] | human recombinant HDAC1 (Homo sapiens) | 60.3
CS(=O)(=O)N(Cc1cnc(-c2nnc(C(F)F)o2)cn1)c1ccccc1 [Compound 11518] | human recombinant HDAC1 (Homo sapiens) | 39.8
O=S(=O)(C1CCN([C@H]2CC[C@H](F)CC2)CC1)N(Cc1ccc(-c2nnc(C(F)F)o2)cn1)c1cccc(Cl)c1 [Compound 11727] | human recombinant HDAC1 (Homo sapiens) | 33.5
NC(=O)[C@H]1CCCN1CCS(=O)(=O)N(Cc1ccc(-c2nnc(C(F)F)o2)cn1)c1ccccc1 [Compound 11848] | human recombinant HDAC1 (Homo sapiens) | 38.9
O=S(=O)(C1CCN(C2CCC2)CC1)N(Cc1ccc(-c2nnc(C(F)F)o2)cc1)c1ccccc1 [Compound 11639] | human recombinant HDAC1 (Homo sapiens) | 77.7
O=S(=O)(C1CCN([C@H]2CC[C@@H](F)CC2)CC1)N(Cc1ccc(-c2nnc(C(F)F)o2)cn1)c1cccc(Cl)c1 [Compound 11728] | human recombinant HDAC1 (Homo sapiens) | 21.6
C[C@H]1CCCN1CCCS(=O)(=O)N(Cc1ccc(-c2nnc(C(F)F)o2)cc1)c1ccccc1 [Compound 11707] | human recombinant HDAC1 (Homo sapiens) | 42.5
CS(=O)(=O)N(Cc1ccc(-c2nnc(C(F)(F)F)o2)cn1)c1ccccc1 [Compound 11171] | human recombinant HDAC1 (Homo sapiens) | 26.6
O=S(=O)(C1CCN(C2COC2)CC1)N(Cc1ccc(-c2nnc(C(F)F)o2)cc1)c1ccccc1 [Compound 11680] | human recombinant HDAC1 (Homo sapiens) | 76.4
Cc1cccc(N(Cc2ccc(-c3nnc(C(F)F)o3)cc2)S(=O)(=O)C2CCN([C@H]3CC[C@H](F)CC3)CC2)c1 [Compound 11695] | human recombinant HDAC1 (Homo sapiens) | 61.4

meta.source: patent US10538498B2
